- targetEntity: T1, biotin-Aβ1-20 (UniProt P05067 672-691, not fully specified; biotin (site not stated))
- T1 construct: domain: Aβ1-20; BIACORE antigen standing for monomeric Aβ peptide; also called biotinylated-Aβ1-20
- T1 peptide (looked up): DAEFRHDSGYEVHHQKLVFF
- assay: BIACORE, Fab fragment against biotinylated-Aβ1-20

{"binder": "4b-H11 Fab (Fab, V domains shown) VH: QVTLKESGPALVKPTQTLTLTCTLSGFSLSTSGMGVGWIRQPPGKALEWLAHIWWDDDKSYNPSLKSRLTISKDTSKNQVVLTMTNMDPVDTATYYCARRQLGRRSVDAMDYWGQGTTVTVSS VL: DVVMTQSPLSLPVTPGEPASISCRSSQSILHSNGNTYLEWYLQKPGQSPQLLIYKVSNRFSGVPDRFSGSGSGTDFTLKISRVEAEDVGVYYCLQTTRVPLTFGQGTKLEIKR", "Kd (nM)": 1.33}

Values compiled from patent US20070081998A1.
